Assay: AUC (0 to infinity) in Sprague-Dawley rat at 5 mg/kg, po
Format: ADME, organism-based
Set-up: dose 5 mg/kg, route oral, time infinity
Conditions: in vivo
measure: AUC(0-inf) (ng·h/mL)

{"compound.structure.string": "COC(=O)N[C@H](C(=O)N1CCC[C@H]1c1nc(-c2ccc(-c3ccc(-c4c[nH]c([C@@H]5CCCN5C(=O)[C@@H](NC(=O)OC)C(C)C)n4)cc3)cc2)c[nH]1)C(C)C", "measure": "AUC(0-inf)", "unit.label": "ng·h/mL", "assay.result": 3320}

----------
Assay: Mean residence time in Sprague-Dawley rat at 5 mg/kg, po
Type: ADME, organism-based
Settings: in vivo
measure: MRT (h)

{"compound.structure.string": "COC(=O)N[C@H](C(=O)N1CCC[C@H]1c1nc(-c2ccc(-c3ccc(-c4c[nH]c([C@@H]5CCCN5C(=O)[C@@H](NC(=O)OC)C(C)C)n4)cc3)cc2)c[nH]1)C(C)C", "assay.result": 3.43}

----------
Assay: Cmax in Sprague-Dawley rat at 5 mg/kg, po
Format: ADME, organism-based
Set-up: dose 5 mg/kg, route oral
Conditions: in vivo

{"compound.structure.string": "COC(=O)N[C@H](C(=O)N1CCC[C@H]1c1nc(-c2ccc(-c3ccc(-c4c[nH]c([C@@H]5CCCN5C(=O)[C@@H](NC(=O)OC)C(C)C)n4)cc3)cc2)c[nH]1)C(C)C", "Cmax, ng/mL": 484}

----------
Assay: Half life in Sprague-Dawley rat at 5 mg/kg, po
Format: ADME, organism-based
Conditions: in vivo

{"compound.structure.string": "COC(=O)N[C@H](C(=O)N1CCC[C@H]1c1nc(-c2ccc(-c3ccc(-c4c[nH]c([C@@H]5CCCN5C(=O)[C@@H](NC(=O)OC)C(C)C)n4)cc3)cc2)c[nH]1)C(C)C", "unit.label": "h", "half-life": 1.66}

----------
Experiment: AUC (0 to 8 hrs) in Sprague-Dawley rat at 5 mg/kg, po
Assay type: ADME, organism-based
Set-up: time < 8 hr, dose 5 mg/kg, route oral
Settings: in vivo
measure: AUC(0-t) at 8 h (ng·h/mL)

{"compound.structure.string": "COC(=O)N[C@H](C(=O)N1CCC[C@H]1c1nc(-c2ccc(-c3ccc(-c4c[nH]c([C@@H]5CCCN5C(=O)[C@@H](NC(=O)OC)C(C)C)n4)cc3)cc2)c[nH]1)C(C)C", "unit.label": "ng·h/mL", "assay.result": 3210}

----------
Experiment: Tmax in Sprague-Dawley rat at 5 mg/kg, po
Type: ADME, organism-based
Conditions: in vivo
measure: Tmax

{"compound.structure.string": "COC(=O)N[C@H](C(=O)N1CCC[C@H]1c1nc(-c2ccc(-c3ccc(-c4c[nH]c([C@@H]5CCCN5C(=O)[C@@H](NC(=O)OC)C(C)C)n4)cc3)cc2)c[nH]1)C(C)C", "assay.result": "3.01 h"}

FYI, the data here is from ChEMBL document CHEMBL3600371.
